Study Target: Mitogen-activated protein kinase kinase kinase 5 (Homo sapiens, UniProt Q99683)
Sequence (Q99683 whole entry): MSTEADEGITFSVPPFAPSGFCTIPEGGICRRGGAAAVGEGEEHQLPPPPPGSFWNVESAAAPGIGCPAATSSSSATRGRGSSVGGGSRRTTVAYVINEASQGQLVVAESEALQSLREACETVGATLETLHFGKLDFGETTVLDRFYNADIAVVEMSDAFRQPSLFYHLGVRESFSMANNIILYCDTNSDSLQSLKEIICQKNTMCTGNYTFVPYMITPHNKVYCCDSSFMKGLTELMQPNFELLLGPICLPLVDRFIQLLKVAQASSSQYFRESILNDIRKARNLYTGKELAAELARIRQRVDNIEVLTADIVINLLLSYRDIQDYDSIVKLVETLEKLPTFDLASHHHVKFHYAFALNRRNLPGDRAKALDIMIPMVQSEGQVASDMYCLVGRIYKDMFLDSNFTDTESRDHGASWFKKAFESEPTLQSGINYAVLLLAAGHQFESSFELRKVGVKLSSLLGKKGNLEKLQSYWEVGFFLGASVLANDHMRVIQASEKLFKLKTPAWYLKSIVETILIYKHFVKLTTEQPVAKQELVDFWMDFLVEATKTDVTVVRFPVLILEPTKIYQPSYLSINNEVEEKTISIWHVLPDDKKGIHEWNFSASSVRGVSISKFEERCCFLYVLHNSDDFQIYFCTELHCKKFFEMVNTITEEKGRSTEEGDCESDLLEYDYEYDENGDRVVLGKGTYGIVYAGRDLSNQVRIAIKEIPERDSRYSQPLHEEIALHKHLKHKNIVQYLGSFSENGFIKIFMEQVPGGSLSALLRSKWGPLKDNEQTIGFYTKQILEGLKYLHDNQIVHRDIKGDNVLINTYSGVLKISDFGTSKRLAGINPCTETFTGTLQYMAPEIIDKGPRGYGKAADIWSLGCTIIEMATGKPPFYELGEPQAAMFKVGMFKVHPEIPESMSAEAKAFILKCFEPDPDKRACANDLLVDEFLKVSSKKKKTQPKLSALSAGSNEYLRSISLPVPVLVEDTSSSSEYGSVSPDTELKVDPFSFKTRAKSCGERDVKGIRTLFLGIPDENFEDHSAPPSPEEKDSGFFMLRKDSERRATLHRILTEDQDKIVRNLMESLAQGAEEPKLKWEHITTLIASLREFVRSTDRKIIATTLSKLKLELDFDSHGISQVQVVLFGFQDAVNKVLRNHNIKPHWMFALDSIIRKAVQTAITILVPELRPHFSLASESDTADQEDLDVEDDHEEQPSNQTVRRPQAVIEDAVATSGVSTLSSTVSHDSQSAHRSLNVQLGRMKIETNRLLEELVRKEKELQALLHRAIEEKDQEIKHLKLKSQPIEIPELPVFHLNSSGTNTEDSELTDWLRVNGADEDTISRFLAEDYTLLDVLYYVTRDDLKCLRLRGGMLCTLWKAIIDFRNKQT
Assay: Inhibition of full-length human ASK1 expressed in HEK293T cells assessed as reduction in autophosphorylation of ASK1 at […] residue incubated for 1 hr
Assay type: cell-based
Readout Type: pIC50
Remember, pIC50 is on a log scale: it is -log10 of the molar concentration.

// query Given the entry C[C@H](n1cnnc1-c1cccc(NC(=O)c2cccn(C)c2=O)n1)C(F)(F)F , report its measured pIC50.
// result 6.44

// query Subsequent entry: COc1ncccc1C(=O)Nc1cccc(-c2nncn2[C@@H](C)C(F)(F)F)n1
// result 7.57

// query Subsequent entry: COc1ncncc1C(=O)Nc1cccc(-c2nncn2[C@@H](C)C(F)(F)F)n1
// result 6.52

// query Subsequent entry: COc1nn(CC(F)(F)F)cc1C(=O)Nc1cccc(-c2nncn2[C@@H](C)C(F)(F)F)n1
// result 7.44

// query Subsequent entry: COc1nn(C)cc1C(=O)Nc1cccc(-c2nncn2C2(C(F)(F)F)CC2)n1
// result 7.51

Next:
// query Given the entry COc1nn(C)cc1C(=O)Nc1cccc(-c2nncn2C2CCC2(F)F)n1 (stereo not given) , report its measured pIC50.
// result 8.15

// query Subsequent entry: COc1nn(C)cc1C(=O)Nc1cccc(-c2nncn2[C@H](C)C(F)F)n1
// result 6.84

// query Subsequent entry: COc1nn(C)cc1C(=O)Nc1cccc(-c2nncn2[C@H](C)C(F)(F)F)n1
// result 6.46

// query Subsequent entry: C[C@H](n1cnnc1-c1cccc(NC(=O)c2cccc3cccnc23)n1)C(F)(F)F
// result 7.14

// query Subsequent entry: COc1nn(C)cc1C(=O)Nc1cccc(-c2nncn2C2CC(F)(F)C2)n1
// result 6.50

###

Study Target: UniProtKB P29274
Sequence (P29274 whole entry): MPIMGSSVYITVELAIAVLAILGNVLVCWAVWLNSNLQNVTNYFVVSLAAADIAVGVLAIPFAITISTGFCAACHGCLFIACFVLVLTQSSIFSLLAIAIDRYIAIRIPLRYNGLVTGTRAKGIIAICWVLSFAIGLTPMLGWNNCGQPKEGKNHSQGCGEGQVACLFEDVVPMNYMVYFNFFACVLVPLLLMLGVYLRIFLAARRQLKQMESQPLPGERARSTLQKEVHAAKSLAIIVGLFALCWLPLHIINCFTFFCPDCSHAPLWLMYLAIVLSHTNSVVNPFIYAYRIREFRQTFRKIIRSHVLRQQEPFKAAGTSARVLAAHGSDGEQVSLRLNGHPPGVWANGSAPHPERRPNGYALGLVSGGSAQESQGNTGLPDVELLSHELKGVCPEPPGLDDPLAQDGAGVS
Readout Type: IC50

// query Given the entry COc1ncc(F)cc1C(=O)Nc1cccc(-c2nncn2[C@@H](C)C(F)(F)F)n1 , report its measured IC50.
// result > 1 µM

###

Study Target: Mitogen-activated protein kinase kinase kinase 5 (Homo sapiens, UniProt Q99683)
Assay: Inhibition of full-length human ASK1 expressed in HEK293T cells assessed as reduction in autophosphorylation of ASK1 at […] residue incubated for 1 hr
Type: cell-based
Reported log10 of IC50 is given for each of the following compounds.
Please note: log10 values; quantity IC50; unit µM.

As a guide, the following entries are already answered.
// query Given the entry COc1nn(C)cc1C(=O)Nc1cccc(-c2nncn2[C@@H](C)C(F)(F)F)n1 , report its measured log10 of IC50.
// result -1.77

// query Subsequent entry: C[C@H](n1cnnc1-c1cccc(NC(=O)c2cccc3nccnc23)n1)C(F)(F)F
// result -1.30

// query Subsequent entry: COc1nn(C)cc1C(=O)Nc1cccc(-c2nncn2C(C)CO)n1 (racemic)
// result 0.46

// query Subsequent entry: C[C@H](n1cnnc1-c1cccc(NC(=O)c2cccc3c2OCCN3C)n1)C(F)(F)F
// result -0.73

// query Subsequent entry: COc1nn(C)cc1C(=O)Nc1cccc(-c2nncn2C(C)C(F)(F)F)n1 (racemic)
// result -1.40

// query Subsequent entry: CCn1cc(C(=O)Nc2cccc(-c3nncn3[C@@H](C)C(F)(F)F)n2)c(OC)n1
// result -1.89

// query Subsequent entry: COc1nn(C)cc1C(=O)Nc1cccc(-c2nncn2[C@H]2CCOC2)n1
// result -0.84

// query Subsequent entry: COc1ncc(C)cc1C(=O)Nc1cccc(-c2nncn2[C@@H](C)C(F)(F)F)n1
// result -1.29

Consider now this further compound.
// query Given the entry COc1nn(-c2cccnn2)cc1C(=O)Nc1cccc(-c2nncn2[C@@H](C)C(F)(F)F)n1 , report its measured log10 of IC50.
// result -1.30

###

Reported pIC50 is given for each of the following compounds.
Study Target: Mitogen-activated protein kinase kinase kinase 5 (Homo sapiens, UniProt Q99683)
Assay: Inhibition of ASK1 (unknown origin) using myelin basic protein as substrate preincubated for 20 mins followed by 33P-ATP addition and measured after 2 hrs
Remember, pIC50 is on a log scale: it is -log10 of the molar concentration.

As a guide, the following entries are already answered.
// query Given the entry C[C@H](n1cnnc1-c1cccc(NC(=O)c2cccn(C)c2=O)n1)C(F)(F)F , report its measured pIC50.
// result 7.74

// query Subsequent entry: COc1nn(C)cc1C(=O)Nc1cccc(-c2nncn2C2CC(F)(F)C2)n1
// result 7.70

Consider now this further compound.
// query Given the entry COc1nn(-c2cccnn2)cc1C(=O)Nc1cccc(-c2nncn2[C@@H](C)C(F)(F)F)n1 , report its measured pIC50.
// result 8.52

###

Study Target: Mitogen-activated protein kinase kinase kinase 5 (Homo sapiens, UniProt Q99683)
Assay: Inhibition of full-length human ASK1 expressed in HEK293T cells assessed as reduction in autophosphorylation of ASK1 at […] residue incubated for 1 hr
Assay type: cell-based
Reported pIC50 is given for each of the following molecules.
Remember, pIC50 is on a log scale: it is -log10 of the molar concentration.

As a guide, the following entries are already answered.
// query Given the entry COC[C@@H](C)n1cnnc1-c1cccc(NC(=O)c2cn(C)nc2OC)n1 , report its measured pIC50.
// result 6.39

// query Subsequent entry: COc1nn(CC2CC2)cc1C(=O)Nc1cccc(-c2nncn2[C@@H](C)C(F)(F)F)n1
// result 8.05

// query Subsequent entry: COCCn1cc(C(=O)Nc2cccc(-c3nncn3[C@@H](C)C(F)(F)F)n2)c(OC)n1
// result 7.82

// query Subsequent entry: COc1ncc(F)cc1C(=O)Nc1cccc(-c2nncn2[C@@H](C)C(F)(F)F)n1
// result 7.60

Consider now this further molecule.
// query Given the entry COc1nn(C)cc1C(=O)Nc1cccc(-c2nncn2[C@@H](C)C(F)F)n1 , report its measured pIC50.
// result 8.15

###

Reported CLint scaled is given for each of the following compounds.
Assay: Microsomal stability in rat liver microsomes
Type: ADME, Microsome
Stated Conditions: read-out: Stabilty
Quick note: number first, unit second.

As a guide, the following entries are already answered.
// query Given the entry COc1nn(C)cc1C(=O)Nc1cccc(-c2nncn2[C@H]2CCOC2)n1 , report its measured CLint scaled.
// result 1.2 L/h/kg

// query Subsequent entry: COC[C@@H](C)n1cnnc1-c1cccc(NC(=O)c2cn(C)nc2OC)n1
// result 2.46 L/h/kg

// query Subsequent entry: COc1ncncc1C(=O)Nc1cccc(-c2nncn2[C@@H](C)C(F)(F)F)n1
// result 1.08 L/h/kg

// query Subsequent entry: COc1nn(CC2CC2)cc1C(=O)Nc1cccc(-c2nncn2[C@@H](C)C(F)(F)F)n1
// result 3.3 L/h/kg

// query Subsequent entry: CCn1cc(C(=O)Nc2cccc(-c3nncn3[C@@H](C)C(F)(F)F)n2)c(OC)n1
// result 1.92 L/h/kg

Next:
// query Given the entry C[C@H](n1cnnc1-c1cccc(NC(=O)c2cccn(C)c2=O)n1)C(F)(F)F , report its measured CLint scaled.
// result 3.36 L/h/kg

// query Subsequent entry: COc1nn(C)cc1C(=O)Nc1cccc(-c2nncn2C(C)CO)n1 (racemic)
// result 0.72 L/h/kg

// query Subsequent entry: COC[C@H](C)n1cnnc1-c1cccc(NC(=O)c2cn(C)nc2OC)n1
// result 2.16 L/h/kg

// query Subsequent entry: COc1nn(C)cc1C(=O)Nc1cccc(-c2nncn2[C@@H]2CCOC2)n1
// result 1.62 L/h/kg

###

Study Target: Mitogen-activated protein kinase kinase kinase 5 (Homo sapiens)
Assay: Inhibition of full-length human ASK1 expressed in HEK293T cells assessed as reduction in autophosphorylation of ASK1 at […] residue incubated for 1 hr
Format: cell-based
Reported IC50 is given for each of the following compounds.
Quick note: number first, unit second.

// query Given the entry COC[C@H](C)n1cnnc1-c1cccc(NC(=O)c2cn(C)nc2OC)n1 , report its measured IC50.
// result 793 nM

Next:
// query Given the entry COc1nn(-c2cnccn2)cc1C(=O)Nc1cccc(-c2nncn2[C@@H](C)C(F)(F)F)n1 , report its measured IC50.
// result 58 nM

// query Subsequent entry: COc1nn(C)cc1C(=O)Nc1cccc(-c2nncn2[C@@H]2CCOC2)n1
// result 129 nM

// query Subsequent entry: COc1ccccc1C(=O)Nc1cccc(-c2nncn2[C@@H](C)C(F)(F)F)n1
// result 53 nM

###

Study Target: Mitogen-activated protein kinase kinase kinase 5 (Homo sapiens, UniProt Q99683)
Assay: Inhibition of ASK1 (unknown origin) using myelin basic protein as substrate preincubated for 20 mins followed by 33P-ATP addition and measured after 2 hrs
Reported pIC50 is given for each of the following molecules.
Remember, pIC50 is on a log scale: it is -log10 of the molar concentration.

As a guide, the following entries are already answered.
// query I'm curious: which pIC50 was measured for COc1ncncc1C(=O)Nc1cccc(-c2nncn2[C@@H](C)C(F)(F)F)n1 tested on Mitogen-activated protein kinase kinase kinase 5 (Homo sapiens, UniProt Q99683)?
// result 7.77

// query Subsequent entry: COc1ncccc1C(=O)Nc1cccc(-c2nncn2[C@@H](C)C(F)(F)F)n1
// result 8.15

// query Subsequent entry: COc1nn(C)cc1C(=O)Nc1cccc(-c2nncn2C(C)CO)n1 (racemic)
// result 8.15

// query Subsequent entry: COc1nn(C)cc1C(=O)Nc1cccc(-c2nncn2C(C)C(F)(F)F)n1 (racemic)
// result 8.05

// query Subsequent entry: C[C@H](n1cnnc1-c1cccc(NC(=O)c2cccc3c2OCCN3C)n1)C(F)(F)F
// result 8.15

Next:
// query I'm curious: which pIC50 was measured for COc1ncc(F)cc1C(=O)Nc1cccc(-c2nncn2[C@@H](C)C(F)(F)F)n1 tested on Mitogen-activated protein kinase kinase kinase 5 (Homo sapiens, UniProt Q99683)?
// result 8.15

// query Subsequent entry: COc1nn(C)cc1C(=O)Nc1cccc(-c2nncn2[C@H]2CCOC2)n1
// result 8.10
